# experimentalSystem: Telomerase reverse transcriptase (Homo sapiens)
# Sequence (O14746 whole entry): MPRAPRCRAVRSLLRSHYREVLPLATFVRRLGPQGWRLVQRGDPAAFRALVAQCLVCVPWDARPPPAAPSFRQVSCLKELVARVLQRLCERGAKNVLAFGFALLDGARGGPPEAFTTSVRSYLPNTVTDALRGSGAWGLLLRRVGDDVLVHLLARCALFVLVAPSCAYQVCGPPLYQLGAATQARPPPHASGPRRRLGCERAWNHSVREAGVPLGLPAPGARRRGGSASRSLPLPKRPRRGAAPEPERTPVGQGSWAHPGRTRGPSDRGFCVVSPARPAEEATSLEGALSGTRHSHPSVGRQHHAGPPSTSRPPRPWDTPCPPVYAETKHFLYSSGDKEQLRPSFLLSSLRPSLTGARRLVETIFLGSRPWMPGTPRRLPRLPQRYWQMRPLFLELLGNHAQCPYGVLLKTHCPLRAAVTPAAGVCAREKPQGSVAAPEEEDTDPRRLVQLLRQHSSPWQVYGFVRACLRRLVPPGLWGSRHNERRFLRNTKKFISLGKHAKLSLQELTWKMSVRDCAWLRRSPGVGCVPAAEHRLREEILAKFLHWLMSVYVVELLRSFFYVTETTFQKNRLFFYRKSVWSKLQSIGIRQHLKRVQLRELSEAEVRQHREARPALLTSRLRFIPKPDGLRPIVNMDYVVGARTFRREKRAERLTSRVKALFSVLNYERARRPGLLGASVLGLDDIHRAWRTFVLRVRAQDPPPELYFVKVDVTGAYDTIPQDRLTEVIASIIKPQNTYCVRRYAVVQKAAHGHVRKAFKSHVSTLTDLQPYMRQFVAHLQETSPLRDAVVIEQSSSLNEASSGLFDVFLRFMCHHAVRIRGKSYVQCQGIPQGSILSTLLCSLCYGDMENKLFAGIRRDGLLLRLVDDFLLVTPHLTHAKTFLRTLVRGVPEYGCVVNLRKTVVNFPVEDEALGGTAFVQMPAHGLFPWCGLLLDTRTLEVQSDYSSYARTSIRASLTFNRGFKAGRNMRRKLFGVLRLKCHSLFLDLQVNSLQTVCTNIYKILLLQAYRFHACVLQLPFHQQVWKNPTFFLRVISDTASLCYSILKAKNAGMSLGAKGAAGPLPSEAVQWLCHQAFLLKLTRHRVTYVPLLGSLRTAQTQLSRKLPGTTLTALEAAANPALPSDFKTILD
# assayExplanation: Inhibition of telomerase in human MGC-803 cells after 24 hrs by TRAP-PCR-ELISA assay
Examples of compounds with documented IC50 follow.

compound	unitAbbrev	IC50
CC1=NN(C(=O)CN2CCN(C)CC2)C(c2ccccc2O)C1 (stereo not given)	µM	2.1
CC1=NN(C(=O)CCl)C(c2cc(Br)cc(Br)c2O)C1 (stereo not given)	µM	3.68
CNCC(=O)N1N=C(c2cc3ccccc3oc2=O)CC1c1ccccc1 (stereo not given)	µM	3.15
COc1ccccc1C1CC(C)=NN1C(=O)CN1CCC(OC)CC1 (stereo not given)	µM	8.4
O=C(c1ccccc1)N1N=C(c2cc3ccccc3oc2=O)CC1c1ccccc1 (stereo not given)	µM	8.74
COc1ccccc1C1CC(C)=NN1C(=O)C[N+]1(C)CCCC1 (stereo not given)	µM	11
O=C(CCl)N1N=C(c2cc3ccccc3oc2=O)CC1c1ccccc1 (stereo not given)	µM	2.27
CC1=NN(C(=O)CCc2ccccc2)C(c2ccccc2O)C1 (stereo not given)	µM	11
CC1=NN(C(=O)CN2CCCCC2)C(c2ccccc2O)C1 (stereo not given)	µM	4.63
O=c1oc2ccccc2cc1C1=NN(S(=O)(=O)c2ccc([N+](=O)[O-])cc2)C(c2ccccc2)C1 (stereo not given)	µM	31.3
CC(=O)Oc1ccccc1C1CC(C)=NN1C(=O)CN1CCC(C(C)=O)CC1 (stereo not given)	µM	3.54
CC(=O)Oc1ccccc1C1CC(C)=NN1C(=O)CN1CCCCC1C (stereo not given)	µM	6.2
CCCNCC(=O)N1N=C(c2cc3ccccc3oc2=O)CC1c1ccccc1 (stereo not given)	µM	9.32
O=C(CN1CCOCC1)N1N=C(c2cc3ccccc3oc2=O)CC1c1ccccc1C(F)(F)F (stereo not given)	µM	3.03
CC1=NN(C(=O)COc2ccc(Cl)cc2)C(c2ccccc2O)C1 (stereo not given)	µM	54.4
CCN(CC)CC(=O)N1N=C(c2cc3ccccc3oc2=O)CC1c1ccccc1 (stereo not given)	µM	5.57
CCC(=O)N1N=C(c2cc3ccccc3oc2=O)CC1c1ccccc1 (stereo not given)	µM	3.63
CCCCCCN(CCCCCC)CC(=O)N1N=C(c2cc3ccccc3oc2=O)CC1c1ccccc1C(F)(F)F (stereo not given)	µM	4.77
NC(=O)C1CCN(CC(=O)N2N=C(c3cc4ccccc4oc3=O)CC2c2ccccc2)CC1 (stereo not given)	µM	31.2
CC1=NN(C(=O)CN2CCCC2)C(c2ccccc2O)C1 (stereo not given)	µM	5.44
CC1=NN(S(=O)(=O)c2ccc([N+](=O)[O-])cc2)C(c2cc(Cl)ccc2O)C1 (stereo not given)	µM	41.2
CCNCC(=O)N1N=C(c2cc3ccccc3oc2=O)CC1c1ccccc1 (stereo not given)	µM	6.68
CC[N+](C)(CC)CC(=O)N1N=C(C)CC1c1ccccc1OC (stereo not given)	µM	3.44
CCCCN(CCCC)CC(=O)N1N=C(c2cc3ccccc3oc2=O)CC1c1ccccc1 (stereo not given)	µM	0.98
O=C(CN1CCSCC1)N1N=C(c2cc3ccccc3oc2=O)CC1c1ccccc1 (stereo not given)	µM	3.3
